# Assay target: HIV-1 envelope protein gp41 subunit (HXB2 envelope), N-helix coiled-coil (HIV-1 (HXB2), UniProt P04578 512-856)
# Sequence (P04578 512-856): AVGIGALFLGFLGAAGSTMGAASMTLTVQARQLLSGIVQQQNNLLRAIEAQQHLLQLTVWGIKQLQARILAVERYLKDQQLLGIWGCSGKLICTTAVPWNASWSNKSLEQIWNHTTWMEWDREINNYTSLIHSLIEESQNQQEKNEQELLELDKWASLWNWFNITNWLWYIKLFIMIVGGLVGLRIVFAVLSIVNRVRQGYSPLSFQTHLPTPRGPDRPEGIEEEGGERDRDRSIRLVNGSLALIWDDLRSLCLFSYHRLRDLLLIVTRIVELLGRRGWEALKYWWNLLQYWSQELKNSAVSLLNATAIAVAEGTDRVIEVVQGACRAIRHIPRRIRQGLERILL
# Assay method text: cell-based or functional assay
IC50 values (nanomolar) for virus entry values for the binders below.
Answer with a number only, understood to be in nM.

Find the measured IC50 values (nanomolar) for virus entry of Ac-WMEGDREINNYTSLIHSLIEESQNQQEKNEQELL-NH2 (Position in gp41 numbering) [C34 peptide Trp^631→Gly] and report it.
38

Find the measured IC50 values (nanomolar) for virus entry of Ac-WMEFDREINNYTSLIHSLIEESQNQQEKNEQELL-NH2 [C34 peptide Trp^631→Phe] and report it.
3.61

Find the measured IC50 values (nanomolar) for virus entry of Ac-WMEVDREINNYTSLIHSLIEESQNQQEKNEQELL-NH2 [C34 peptide Trp^631→Val] and report it.
13

***
Find the measured IC50 values (nanomolar) for virus entry of Ac-WMELDREINNYTSLIHSLIEESQNQQEKNEQELL-NH2 [C34 peptide Trp^631→Leu] and report it.
5.3
